# Test system: biotinyl-Ile-oxazolone
# Test Method Notes: self-aminoacylation, catalytic enhancement (BIO) (fold over background); higher = more active; k-Seq, kA / k0A0; sequences stand for … in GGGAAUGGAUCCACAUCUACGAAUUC…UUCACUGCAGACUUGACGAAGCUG
Variants at the floor of the assay were thinned out.
# self-aminoacylation per record follows
Recorded Endpoint: self-aminoacylation

>>> print(df.to_string())
                                 seq_string    recorded_endpoint  recorded_value
0  AAAUUUGCUACUAGUCGCAAG [Fam3.1 aminoacylation ribozyme variant]  self-aminoacylation            2.05
1  CUACUUCAAACAAUCCGUCUA [Fam1A.1 aminoacylation ribozyme variant]  self-aminoacylation           0.801
2  CCACGCUCCAAGCAAUCGGUC [Fam1B.1 aminoacylation ribozyme variant]  self-aminoacylation            1.13
3  CGACACUUCAAGCAAUCGGUA [Fam1B.1 aminoacylation ribozyme variant]  self-aminoacylation            1.86
